quantity kind: melting point

In the examples that follow, each entry is paired with its recorded melting point.
compound: CON(Cc1ccc(-c2noc(C(F)(F)F)n2)cc1)C(=O)NC1CC1
melting point: 84 to 87 °C

compound: CON(Cc1ccc(-c2noc(C(F)(F)F)n2)cc1)C(=O)NC1COC1
melting point: 97 to 100 °C

compound: CON(Cc1ccc(-c2noc(C(F)(F)F)n2)c(F)c1)C(=O)c1ccccc1Cl
melting point: 89 to 95 °C

compound: CON(Cc1ccc(-c2noc(C(F)(F)F)n2)cc1)C(=O)CNC(=O)C1CC1
melting point: 135.9 to 138.5 °C

compound: COCC(=O)N(Cc1ccc(-c2noc(C(F)(F)F)n2)cc1)CC(F)(F)F
melting point: 92.6 to 94.3 °C

compound: CON(Cc1ccc(-c2noc(C(F)(F)F)n2)cc1)C(=O)NCC1CC1(F)F (centres unmarked)
melting point: 81 to 84 °C

compound: CON(C)C(=O)N(Cc1ccc(-c2noc(C(F)(F)F)n2)cc1)OC
melting point: 74 to 77 °C

From here, focus on the item given below.
stdin: # input compound: `CCOC(=O)c1cnn(CC(=O)N(Cc2ccc(-c3noc(C(F)(F)F)n3)cc2)OC)c1` ; wanted: its melting point
stdout: 79.1 to 80.4 °C

###

// reported melting point for each item listed

In the examples that follow, each entry is paired with its recorded melting point.
compound: CON(Cc1ccc(-c2noc(C(F)(F)F)n2)cc1)C(=O)NCC#N
melting point: 155 to 158 °C
//
compound: CON(Cc1ccc(-c2noc(C(F)(F)F)n2)cc1)C(=O)N[C@@H](C)C1CC1
melting point: 99 to 102 °C
//
compound: CCC(=O)NC(C(=O)N(Cc1ccc(-c2noc(C(F)(F)F)n2)cc1)OC)C(C)C (stereo not drawn)
melting point: 98.5 to 100.6 °C
//
compound: CCC(=O)N1CCCC1C(=O)N(Cc1ccc(-c2noc(C(F)(F)F)n2)cc1)OC (stereo not drawn)
melting point: 148.2 to 150.6 °C

From here, focus on the item given below.
stdin: # input compound: `CON(Cc1ccc(-c2noc(C(F)(F)F)n2)cc1)C(=O)/C=C/c1ccccc1` ; wanted: its melting point
stdout: 94 to 99 °C

###

Tested on: Phakopsora Pachyrhizi
test summary: Fungicidal activity against Phakopsora pachyrhizi / soybean / leaf disc preventative (Asian soybean rust)
Assay type: in vivo
test context: foliar, 200 ppm in the applied formulation, soybean leaf disks, compared to untreated control leaf disks, read-out: disease control
quantity kind: pest or weed control at 200 ppm

compound: CCCCON(Cc1ccc(-c2noc(C(F)(F)F)n2)cc1)C(=O)C(C)OC (centres unmarked)
assay value: ≥ 80%
//
compound: C=CCN(Cc1ccc(-c2noc(C(F)(F)F)n2)cc1)C(=O)CC
assay value: ≥ 80%
//
compound: C=CCN(Cc1ccc(-c2noc(C(F)(F)F)n2)cc1)C(=O)C1CC1F (centres unmarked)
assay value: ≥ 80%
//
compound: CCC(C)N(Cc1ccc(-c2noc(C(F)(F)F)n2)cc1)C(=O)C1CC1F (centres unmarked)
assay value: ≥ 80%
//
compound: CCC(C)C(=O)N(CCOC)Cc1ccc(-c2noc(C(F)(F)F)n2)cc1 (centres unmarked)
assay value: ≥ 80%
//
compound: COCCN(Cc1ccc(-c2noc(C(F)(F)F)n2)cc1)C(=O)C1CC1C (centres unmarked)
assay value: ≥ 80%
//
compound: O=C(c1ccccc1Cl)N(Cc1ccc(-c2noc(C(F)(F)F)n2)cc1)CC(F)(F)F
assay value: ≥ 80%

From here, focus on the item given below.
stdin: # input compound: CCCN(Cc1ccc(-c2noc(C(F)(F)F)n2)cc1)C(=O)C1CC1(F)F (centres unmarked) ; wanted: its pest or weed control at 200 ppm
stdout: ≥ 80%
